Data origin: patent US9073863B2

Molecular target: ΔF508-CFTR (Homo sapiens, UniProt P13569, DEL508-508)
Construct: expressed in transfected cells; host or cells: Fischer rat thyroid (FRT) epithelial cells, stably transfected
Sequence (P13569 with tags, fused parts or gaps DEL508-508): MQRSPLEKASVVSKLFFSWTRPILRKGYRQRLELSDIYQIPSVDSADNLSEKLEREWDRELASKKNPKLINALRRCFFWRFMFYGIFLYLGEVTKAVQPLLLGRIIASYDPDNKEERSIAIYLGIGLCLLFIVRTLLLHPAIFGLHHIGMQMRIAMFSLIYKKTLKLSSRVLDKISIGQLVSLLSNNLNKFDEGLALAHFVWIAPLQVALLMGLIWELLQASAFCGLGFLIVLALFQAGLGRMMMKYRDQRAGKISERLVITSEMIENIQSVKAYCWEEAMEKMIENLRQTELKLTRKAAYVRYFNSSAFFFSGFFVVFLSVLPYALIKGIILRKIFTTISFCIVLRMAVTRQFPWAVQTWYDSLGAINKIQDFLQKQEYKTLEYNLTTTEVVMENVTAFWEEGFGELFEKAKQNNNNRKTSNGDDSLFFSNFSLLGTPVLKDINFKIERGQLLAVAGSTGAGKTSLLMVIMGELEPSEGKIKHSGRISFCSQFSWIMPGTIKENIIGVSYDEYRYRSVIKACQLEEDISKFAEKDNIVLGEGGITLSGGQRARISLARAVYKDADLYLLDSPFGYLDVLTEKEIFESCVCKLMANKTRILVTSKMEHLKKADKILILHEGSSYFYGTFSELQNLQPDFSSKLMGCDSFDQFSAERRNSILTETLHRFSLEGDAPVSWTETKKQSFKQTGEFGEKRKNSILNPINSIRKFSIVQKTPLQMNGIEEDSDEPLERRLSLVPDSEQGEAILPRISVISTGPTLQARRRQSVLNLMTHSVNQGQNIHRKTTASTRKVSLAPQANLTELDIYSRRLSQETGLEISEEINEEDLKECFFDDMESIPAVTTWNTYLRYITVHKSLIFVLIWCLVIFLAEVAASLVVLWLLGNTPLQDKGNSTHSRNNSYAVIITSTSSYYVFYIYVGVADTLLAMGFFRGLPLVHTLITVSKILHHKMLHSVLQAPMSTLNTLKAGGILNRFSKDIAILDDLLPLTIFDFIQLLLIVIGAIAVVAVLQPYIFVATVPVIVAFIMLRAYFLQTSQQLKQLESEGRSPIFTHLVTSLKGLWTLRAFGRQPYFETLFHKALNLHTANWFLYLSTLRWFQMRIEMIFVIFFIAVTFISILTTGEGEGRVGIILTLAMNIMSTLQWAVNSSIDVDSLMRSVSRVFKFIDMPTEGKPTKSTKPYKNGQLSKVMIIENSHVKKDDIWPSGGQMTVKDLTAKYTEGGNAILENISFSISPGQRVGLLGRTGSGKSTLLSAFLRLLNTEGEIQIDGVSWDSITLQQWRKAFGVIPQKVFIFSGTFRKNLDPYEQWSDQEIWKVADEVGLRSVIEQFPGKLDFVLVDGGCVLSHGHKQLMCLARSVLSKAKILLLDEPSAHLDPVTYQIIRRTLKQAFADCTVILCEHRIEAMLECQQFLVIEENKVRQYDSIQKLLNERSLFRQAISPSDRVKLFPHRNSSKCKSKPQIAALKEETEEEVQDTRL
Assay: Potentiator assay, YFP fluorescence plate reader iodide influx in low-temperature rescued ΔF508-CFTR expressing FRT cells
Type: cell-based
Details: Table IX, additional experiments; 18-24 h at 27° C., forskolin 20 μM + test compound
MEASUREMENT_LABEL: Potentiator Vmax (µM/s)

Cc1cc(C)c2cc(C#N)c(NCCNC(=O)c3ccccc3)nc2c1 ... 210

[a] COc1ccc(C(=O)N2CCN(c3nc4cc(C)cc(C)c4cc3C#N)CC2)cc1 [drawing 172]
[b] Cc1cc(C)c2cc(C#N)c(NCCCNC(=O)c3cccnc3)nc2c1 [drawing 180]
[c] Cc1cc(C)c2cc(C#N)c(NCCCNC(=O)c3ccncc3)nc2c1 [drawing 181]
stdin: Order the entries by their reported Potentiator Vmax, beginning at the minimum. Respond with an ordered listing of the labels, as requested.
stdout: c, b, a

----------
Molecular target: ΔF508-CFTR (Homo sapiens, UniProt P13569, DEL508-508)
Construct: expressed in transfected cells; host or cells: Fischer rat thyroid (FRT) epithelial cells, stably transfected
Test: Potentiator assay, YFP fluorescence plate reader iodide influx in low-temperature rescued ΔF508-CFTR expressing FRT cells
Assay type: cell-based
Settings: Table IX, additional experiments; 18-24 h at 27° C., forskolin 20 μM + test compound
MEASUREMENT_LABEL: Potentiator Vmax (µM/s)

COc1ccccc1C(=O)NCCCNc1nc2cc(C)cc(C)c2cc1C#N ... 254
COc1ccccc1C(=O)N1CCN(c2nc3cc(C)cc(C)c3cc2C#N)CC1 [drawing 170] ... 129
Cc1cc(C)c2cc(C#N)c(NCCNC(=O)c3ccncc3)nc2c1 [drawing 169] ... 220
COc1cccc(C(=O)NCCCNc2nc3cc(C)cc(C)c3cc2C#N)c1 [drawing 177] ... 147
Cc1cc(C)c2cc(C#N)c(N3CCN(C(=O)c4ccccn4)CC3)nc2c1 [drawing 173] ... 102
COc1ccc(C(=O)NCCCNc2nc3cc(C)cc(C)c3cc2C#N)cc1 [drawing 178] ... 231
COc1cccc(C(=O)N2CCN(c3nc4cc(C)cc(C)c4cc3C#N)CC2)c1 [drawing 171] ... 200
Cc1cc(C)c2cc(C#N)c(NCCNC(=O)c3cccnc3)nc2c1 [drawing 168] ... 242

[a] COc1ccc(C(=O)NCCNc2nc3cc(C)cc(C)c3cc2C#N)nc1 [drawing 186]
[b] COc1ccccc1C(=O)NCCNc1nc2cc(C)cc(C)c2cc1C#N [drawing 165]
stdin: For the pair a and b , which entry has the numerically smaller recorded Potentiator Vmax? Refer to your chosen entry by its label in the reply.
stdout: a
(a: 70 µM/s, b: 154 µM/s)

[I] COc1cccc(C(=O)NCCNc2nc3cc(C)cc(C)c3cc2C#N)c1 [drawing 164]
[II] COc1cccc(OC)c1C(=O)NCCNc1nc2cc(C)cc(C)c2cc1C#N
[III] Cc1cc(C)c2cc(C#N)c(NCCNC(=O)c3ccccn3)nc2c1 [drawing 167]
[IV] COc1ccc(C(=O)NCCNc2nc3cc(C)cc(C)c3cc2C#N)c(OC)c1
stdin: Form: Sort by [Potentiator Vmax] Order [ ascending ] Sort the labels as requested; that list is your answer.
stdout: III, II, I, IV

----------
Biological target: ΔF508-CFTR (Homo sapiens, UniProt P13569, DEL508-508)
Construct: expressed in transfected cells; host or cells: Fischer rat thyroid (FRT) epithelial cells, stably transfected
Experiment: Corrector assay, YFP fluorescence plate reader iodide influx in ΔF508-CFTR expressing FRT cells
Assay type: cell-based
Conditions: Table IX, additional experiments; 18-24 h with compound at 37° C., forskolin 20 μM + genistein 50 μM
MEASUREMENT_LABEL: Corrector Vmax (µM/s)

[A] COc1cccc(C(=O)NCCNc2nc3cc(C)cc(C)c3cc2C#N)c1 [drawing 164]
[B] Cc1cc(C)c2cc(C#N)c(NCCNC(=O)c3cccnc3)nc2c1 [drawing 168]
stdin: Pick one: A or B . Which one has the lower reported Corrector Vmax? // respond with label for picked entry
stdout: B
(B: 151 µM/s, A: 300 µM/s)

----------
Molecular target: ΔF508-CFTR (Homo sapiens, UniProt P13569, DEL508-508)
Construct: expressed in transfected cells; host or cells: Fischer rat thyroid (FRT) epithelial cells, stably transfected
Test: Potentiator assay, YFP fluorescence plate reader iodide influx in low-temperature rescued ΔF508-CFTR expressing FRT cells
Assay type: cell-based
Conditions: Table IX, additional experiments; 18-24 h at 27° C., forskolin 20 μM + test compound
pEC50: −log10 of the molar value.
MEASUREMENT_LABEL: pEC50

Previously resolved entries follow.
COc1ccc(C(=O)NCCNc2nc3cc(C)cc(C)c3cc2C#N)nc1 [drawing 186] ... 5.47
COc1ccc(C(=O)NCCNc2nc3cc(C)cc(C)c3cc2C#N)cc1OC [drawing 185] ... 4.32
COc1cccc(OC)c1C(=O)NCCNc1nc2cc(C)cc(C)c2cc1C#N ... 4.94
Cc1cc(C)c2cc(C#N)c(NCCCNC(=O)c3ccncc3)nc2c1 [drawing 181] ... 4.88
Cc1cc(C)c2cc(C#N)c(NCCNC(=O)c3ccncc3)nc2c1 [drawing 169] ... 5.00

[1] Cc1cc(C)c2cc(C#N)c(N3CCN(C(=O)c4ccccn4)CC3)nc2c1 [drawing 173]
[2] COc1ccccc1C(=O)N1CCN(c2nc3cc(C)cc(C)c3cc2C#N)CC1 [drawing 170]
[3] Cc1cc(C)c2cc(C#N)c(NCCNC(=O)c3cccnc3)nc2c1 [drawing 168]
stdin: Hey, quick one: sort these by pEC50, low to high? API: response body holds the labels in the requested order.
stdout: 3, 1, 2

[I] COc1ccc(C(=O)NCCNc2nc3cc(C)cc(C)c3cc2C#N)c(OC)c1
[II] Cc1cc(C)c2cc(C#N)c(NCCNC(=O)c3ccccn3)nc2c1 [drawing 167]
[III] COc1cccc(C(=O)NCCNc2nc3cc(C)cc(C)c3cc2C#N)c1 [drawing 164]
[IV] COc1ccccc1C(=O)NCCCNc1nc2cc(C)cc(C)c2cc1C#N
stdin: Rank by pEC50 (largest to smallest). Show the ranking through the labels, in the order asked for.
stdout: II, III, IV, I
(II: 5.92, III: 5.23, IV: 4.56, I: 4.26)

----------
Molecular target: ΔF508-CFTR (Homo sapiens, UniProt P13569, DEL508-508)
Construct: expressed in transfected cells; host or cells: Fischer rat thyroid (FRT) epithelial cells, stably transfected
Test: Potentiator assay, YFP fluorescence plate reader iodide influx in low-temperature rescued ΔF508-CFTR expressing FRT cells
Format: cell-based
Conditions: Table VIII; FRT cells 18-24 h at 27° C., forskolin 20 μM + test compound, I− influx
MEASUREMENT_LABEL: Potentiator Vmax (µM/s)

COc1ccc(C(=O)NCCCNc2nc3cc(C)cc(C)c3cc2C#N)cc1 [drawing 160] ... 231
CCOc1ccccc1NC(=S)NCCNc1nc2c(C)cccc2cc1C#N [drawing 144] ... 275
Cc1cc(C)c2cc(C#N)c(NCCNC(=O)c3ccccn3)nc2c1 [drawing 149] ... 80
COc1ccc2nc(N3CCN(C(=O)c4ccccc4F)CC3)c(C#N)cc2c1 ... 195
COc1cccc(C(=O)N2CCN(c3nc4cc(C)cc(C)c4cc3C#N)CC2)c1 [drawing 153] ... 200
COc1ccccc1C(=O)NCCNc1nc2cc(C)cc(C)c2cc1C#N [drawing 147] ... 154
COc1cccc(C(=O)NCCCNc2nc3cc(C)cc(C)c3cc2C#N)c1 [drawing 159] ... 147
COc1ccc(C(=O)NCCNc2nc3cc(C)cc(C)c3cc2C#N)cc1 [drawing 148] ... 181

[I] Cc1cc(C)c2cc(C#N)c(NCCCNC(=O)c3ccccn3)nc2c1 [drawing 161]
[II] Cc1cc(C)c2cc(C#N)c(N3CCN(C(=O)c4ccccn4)CC3)nc2c1 [drawing 155]
[III] Cc1cc(C)c2cc(C#N)c(NCCNC(=O)c3cccnc3)nc2c1 [drawing 150]
stdin: // smallest Potentiator Vmax at index 0, largest at the end List the labels in the requested order.
stdout: II, III, I

----------
Target: ΔF508-CFTR (Homo sapiens, UniProt P13569, DEL508-508)
Construct: expressed in transfected cells; host or cells: Fischer rat thyroid (FRT) epithelial cells, stably transfected
Assay: Corrector assay, YFP fluorescence plate reader iodide influx in ΔF508-CFTR expressing FRT cells
Assay type: cell-based
Conditions: Table IX, additional experiments; 18-24 h with compound at 37° C., forskolin 20 μM + genistein 50 μM
MEASUREMENT_LABEL: Corrector Vmax (µM/s)

COc1ccc(C(=O)NCCNc2nc3cc(C)cc(C)c3cc2C#N)nc1 [drawing 186] ... 88
COc1ccc(C(=O)NCCCNc2nc3cc(C)cc(C)c3cc2C#N)cc1 [drawing 178] ... 112
